# assay_target: Laminin 421/521
# experiment: phage display, NGS count
Classify: criterion met when Count is strictly less than 40; criterion not met when Count is not.

Reference set (4 entries):
| binder | category |
| --- | --- |
| DWTQVRVTNWFL | criterion met |
| AWNGNRS | criterion not met |
| GPKNHHQ | criterion not met |
| DVIHSSRGAYFE | criterion met |

A record lists MTNSGAK . Is its Count below 40?
criterion met
